# System: Basinger human fibroblasts
# Assay Method Text: Drying tolerance of Basinger human fibroblasts with disaccharides and polyols (trypan blue exclusion)
# Type: cell-based
# Test Context: Day 4 of drying; concentration (50 mM or 10% solution); vacuum
Readout Kind: Cell Culture Survival (%)

INSERT INTO assay_data (compound, obs_value) VALUES
  ('OC[C@H]1O[C@H](O[C@H]2O[C@H](CO)[C@@H](O)[C@H](O)[C@H]2O)[C@H](O)[C@@H](O)[C@@H]1O [Trehalose, D (+) trehalose dihydrate]', '38%'),
  ('OCC(O)CO [glycerol]', '4.8%'),
  ('OC[C@@H](O)[C@@H](O)[C@H](O)[C@H](O)CO [Mannitol]', '11%'),
  ('OC[C@@H](O)[C@@H](O)[C@H](O)[C@@H](O)CO [Sorbitol]', '8%'),
  ('OC[C@H]1O[C@H](O[C@H]2[C@H](O)[C@@H](O)C(O)O[C@@H]2CO)[C@H](O)[C@@H](O)[C@@H]1O (mixture of isomers) [Maltose]', '17%'),
  ('OC[C@H]1O[C@@](CO)(O[C@H]2O[C@H](CO)[C@@H](O)[C@H](O)[C@H]2O)[C@@H](O)[C@@H]1O [Sucrose]', '28%');

###

In this section we review reported Cell Culture Survival (%) values for a set of molecules.
# Test system: Basinger human fibroblasts
# Assay Method Text: Drying tolerance of Basinger human fibroblasts with disaccharides and polyols (trypan blue exclusion)
# Assay type: cell-based
# Test Context: Day 3 of drying; concentration (50 mM or 10% solution); vacuum
Readout Kind: Cell Culture Survival (%)

INSERT INTO assay_data (molecule, readout_kind, unit_tag, obs_value) VALUES
  ('OC[C@H]1O[C@H](O[C@H]2[C@H](O)[C@@H](O)C(O)O[C@@H]2CO)[C@H](O)[C@@H](O)[C@@H]1O (mixture of isomers) [Maltose]', 'Cell Culture Survival (%)', '%', 31),
  ('OC[C@H]1O[C@@](CO)(O[C@H]2O[C@H](CO)[C@@H](O)[C@H](O)[C@H]2O)[C@@H](O)[C@@H]1O [Sucrose]', 'Cell Culture Survival (%)', '%', 39),
  ('OC[C@@H](O)[C@@H](O)[C@H](O)[C@@H](O)CO [Sorbitol]', 'Cell Culture Survival (%)', '%', 29),
  ('OC[C@@H](O)[C@@H](O)[C@H](O)[C@H](O)CO [Mannitol]', 'Cell Culture Survival (%)', '%', 32),
  ('OCC(O)CO [glycerol]', 'Cell Culture Survival (%)', '%', 2.6),
  ('OC[C@H]1O[C@H](O[C@H]2O[C@H](CO)[C@@H](O)[C@H](O)[C@H]2O)[C@H](O)[C@@H](O)[C@@H]1O [Trehalose, D (+) trehalose dihydrate]', 'Cell Culture Survival (%)', '%', 45);

Origin of measurements: patent US6528309B2
